# test protocol: Water solubility of peptides when preparing stock solutions
# Format: physicochemical
# measurement conditions: stock solution in sterile distilled water or 100% DMSO; read-out: solubility of peptide (water soluble or water insoluble, dissolved in DMSO)
Where a SMILES comes first, the peptide text is derived from it.
endpoint: solubility

Fill blank: measured solubility of the molecule CC[C@H](C)[C@H](NC(=O)[C@H](CC(N)=O)NC(=O)[C@H](Cc1ccccc1)NC(=O)CNC(=O)[C@H](CC(C)C)NC(=O)[C@H](CO)NC(=O)[C@H](CC(N)=O)NC(=O)[C@H](Cc1ccc(O)cc1)NC(=O)[C@H](Cc1ccc(O)cc1)NC(=O)[C@@H](NC(=O)CN)[C@@H](C)O)C(=O)N[C@@H](CCCCN)C(=O)N[C@@H](C)C(=O)N[C@H](C(=O)N[C@@H](CC(N)=O)C(=O)O)[C@@H](C)O [Peptide L6-4, GTYYNSLGFNIKATN] (H-GTYYNSLGFNIKATN-OH) is ____.
< 2500 µg/mL

Fill blank: measured solubility of the molecule CC[C@H](C)[C@H](NC(=O)[C@H](CO)NC(=O)[C@@H](NC(=O)[C@@H](NC(=O)[C@H](CCCCN)NC(=O)[C@@H](NC(=O)[C@H](CCC(N)=O)NC(=O)[C@@H](NC(=O)[C@H](Cc1ccc(O)cc1)NC(=O)[C@H](CC(N)=O)NC(=O)[C@H](CC(=O)O)NC(=O)[C@@H](N)CC(C)C)[C@@H](C)CC)[C@@H](C)O)[C@@H](C)O)C(C)C)C(=O)N[C@@H](CCCNC(=N)N)C(=O)N[C@@H](CC(C)C)C(=O)NCC(=O)O [Peptide 71.2, LDNYIQTKTVSIRLG] (H-LDNYIQTKTVSIRLG-OH) is ____.
< 2500 µg/mL

Fill blank: measured solubility of the molecule CC(C)C[C@H](NC(=O)[C@H](CC(N)=O)NC(=O)[C@H](C)NC(=O)[C@H](CC(C)C)NC(=O)[C@H](CC(C)C)NC(=O)[C@H](CO)NC(=O)[C@H](Cc1ccccc1)NC(=O)[C@H](C)NC(=O)[C@@H](NC(=O)[C@H](CCCCN)NC(=O)[C@H](Cc1ccc(O)cc1)NC(=O)CNC(=O)[C@H](CC(C)C)NC(=O)[C@@H]1CCCN1C(=O)[C@@H](N)C(C)C)[C@@H](C)O)C(=O)O [Peptide 66.3.1, VPLGYKTAFSLLANL] (H-VPLGYKTAFSLLANL-OH) is ____.
< 2500 µg/mL

Fill blank: measured solubility of the molecule CC[C@H](C)[C@H](NC(=O)[C@H](CCC(N)=O)NC(=O)CNC(=O)[C@H](CO)NC(=O)[C@H](CCCNC(=N)N)NC(=O)[C@H](CC(C)C)NC(=O)CNC(=O)[C@@H](NC(=O)[C@@H](NC(=O)[C@@H](NC(=O)[C@H](CC(=O)O)NC(=O)[C@H](C)N)[C@@H](C)CC)C(C)C)C(C)C)C(=O)N[C@@H](CCCCN)C(=O)N[C@H](C(=O)NCC(=O)O)[C@@H](C)O [Peptide 44.2, ADIVVGLRSGQIKTG] (H-ADIVVGLRSGQIKTG-OH) is ____.
> 2500 µg/mL

Fill blank: measured solubility of the molecule CC[C@H](C)[C@H](NC(=O)[C@H](CC(N)=O)NC(=O)[C@H](Cc1ccccc1)NC(=O)CN)C(=O)N[C@@H](CCCCN)C(=O)N[C@@H](C)C(=O)N[C@H](C(=O)N[C@@H](CC(N)=O)C(=O)NCC(=O)NCC(=O)N[C@H](C(=O)N[C@@H](CC(C)C)C(=O)N[C@@H](CC(=O)O)C(=O)N[C@@H](Cc1ccccc1)C(=O)N[C@H](C(=O)O)[C@@H](C)O)[C@@H](C)O)[C@@H](C)O [Peptide 35.5, GFNIKATNGGTLDFT] (H-GFNIKATNGGTLDFT-OH) is ____.
> 2500 µg/mL

Fill blank: measured solubility of the molecule CC[C@H](C)[C@H](NC(=O)[C@H](Cc1ccc(O)cc1)NC(=O)[C@H](C)NC(=O)[C@H](CC(=O)O)NC(=O)[C@H](C)NC(=O)[C@@H](NC(=O)CNC(=O)[C@H](CCC(N)=O)NC(=O)[C@@H](NC(=O)[C@@H](NC(=O)[C@H](Cc1ccccc1)NC(=O)[C@H](CC(=O)O)NC(=O)[C@H](CCCCN)NC(=O)[C@@H]1CCCN1)C(C)C)C(C)C)C(C)C)C(=O)N[C@H](C(=O)O)[C@@H](C)O [Peptide 38.2.1, PKDFVVQGVADAYIT] (H-PKDFVVQGVADAYIT-OH) is ____.
< 2500 µg/mL

Fill blank: measured solubility of the molecule CC[C@H](C)[C@H](NC(=O)[C@H](CC(N)=O)NC(=O)[C@H](Cc1ccccc1)NC(=O)CNC(=O)[C@H](CC(C)C)NC(=O)[C@@H](N)CO)C(=O)N[C@@H](CCCCN)C(=O)N[C@@H](C)C(=O)N[C@H](C(=O)N[C@@H](CC(N)=O)C(=O)NCC(=O)NCC(=O)N[C@H](C(=O)N[C@@H](CC(C)C)C(=O)N[C@@H](CC(=O)O)C(=O)O)[C@@H](C)O)[C@@H](C)O [Peptide 35.4, SLGFNIKATNGGTLD] (H-SLGFNIKATNGGTLD-OH) is ____.
> 2500 µg/mL

Fill blank: measured solubility of the molecule CC[C@H](C)[C@H](NC(=O)[C@H](CC(N)=O)NC(=O)[C@H](Cc1ccccc1)NC(=O)CNC(=O)[C@H](CC(C)C)NC(=O)[C@H](CO)NC(=O)[C@H](CC(N)=O)NC(=O)[C@@H](N)Cc1ccc(O)cc1)C(=O)N[C@@H](CCCCN)C(=O)N[C@@H](C)C(=O)N[C@H](C(=O)N[C@@H](CC(N)=O)C(=O)NCC(=O)NCC(=O)N[C@H](C(=O)O)[C@@H](C)O)[C@@H](C)O [Peptide 35.3, YNSLGFNIKATNGGT] (H-YNSLGFNIKATNGGT-OH) is ____.
< 2500 µg/mL

Next:
Fill blank: measured solubility of the molecule CC(C)C[C@H](N)C(=O)N1CCC[C@H]1C(=O)N[C@@H](CC(N)=O)C(=O)N[C@@H](Cc1ccc(O)cc1)C(=O)N[C@H](C(=O)N[C@@H](CCCNC(=N)N)C(=O)N[C@@H](C)C(=O)NCC(=O)NCC(=O)N[C@@H](CC(N)=O)C(=O)NCC(=O)N1CCC[C@H]1C(=O)N[C@@H](CCCCN)C(=O)N[C@@H](CC(=O)O)C(=O)N[C@@H](Cc1ccccc1)C(=O)O)C(C)C [Peptide L6-5.01, LPNYVRAGGNGPKDF] (H-LPNYVRAGGNGPKDF-OH) is ____.
> 2500 µg/mL
